B1: glmS ribozyme (parent)
chain: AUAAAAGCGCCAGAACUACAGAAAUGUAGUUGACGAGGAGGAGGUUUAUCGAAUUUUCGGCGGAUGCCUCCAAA

- Variants of: B1
- methodNotes: KM; higher = weaker cofactor use; RNA array
- conditionSummary: with glucosamine-6-phosphate
Catalogue of log10 of KM readings, one per entry.
readoutType: log10 of KM (log10 of the value in µM)

mutationId	log10 of KM
A12C A64G	3.20
G41U U45C	3.06
U46A	3.27
C11A G66U	1.77
U31G U45A	3.34
G40U A53U	3.11
G44U U46G	3.53
A14U A39U	3.48
A53G U55C	3.09
U56C C67U	3.90
G29U C50U	3.55
A14U C71G	3.21
C58U A64C C70A	2.56
G32A U57A	3.48
A12U G66C	3.10
U46A C70A	2.80
A52C C71U	3.22
G43A	3.19
G59A G63U	2.47
A52G U57C	3.25
A12G A15G	3.66
A52G A64G	3.57
U46C U69C	2.81
U56A U57C	3.31
A15C G32U	3.83
A12G U56A	3.90
C67U C70U	3.14
G29U U45C	3.33
A15G U55C	3.27
A14C A15G	3.80
U47G G66U	2.88
A39G G43A	3.78
U47C C50U	3.22
A42U C71U	3.12
A33U G41A U54G	3.43
C16U G43U	3.10
G66U C71U	3.33
A12G C67A	3.38
U30A U55C	3.54
A12C U56G	3.53
A12U G37C	3.62
U49G C68U	2.94
A64C C70U	3.20
G40C U46G	3.37
G32A A64G	3.79
U30G	3.38
G40U C71G	3.08
U45G U65A	3.30
U45C U56C	3.74
C11U C61U	2.09
U45C U55G	3.44
G29C G37A	3.79
A15U A53U	3.47
U54A C58G	3.56
U47C A52U	3.59

Origin of values: the supplement of paper PMC7125110
